Please find below pIC50 data on DGKα (Homo sapiens) compiled from the literature.
pIC50: −log10 of the molar value.
Please enter Fulfilled where pIC50 is greater than or equal to 7, and Not fulfilled where it is lower.

Example cases with answers are listed next.
[[record]]
compound = "CC[C@H]1CN(C(C)c2ccc(CN3CCC(F)(F)CC3)cn2)[C@H](CC)CN1c1cc(=O)n(C)c2cn(CC#N)nc12 (some centres unmarked)"
assigned_class = "Fulfilled"

[[record]]
compound = "CC[C@H]1CN(C(C)c2ccc3c(c2)CCO3)[C@H](CC)CN1c1cc(=O)n(C)c2cn(CC#N)nc12 (some centres unmarked)"
assigned_class = "Not fulfilled"

[[record]]
compound = "CC[C@H]1CN(C(C)c2ccc(C(=O)N(C)C)c(F)c2)[C@H](CC)CN1c1cc(=O)n(C)c2cn(CC#N)nc12 (single isomer, unassigned)"
assigned_class = "Not fulfilled"

[[record]]
compound = "CC(c1ccc2nccnc2c1)N1C[C@H](C)N(c2cc(=O)n(C)c3cc(CC#N)nn23)C[C@H]1C (single isomer, unassigned)"
assigned_class = "Not fulfilled"

[[record]]
compound = "CC(C)(C#N)c1nnc(-c2cc3c(cc2F)C(F)(F)CC(N)C(=O)N3Cc2ccc(-n3cc(C(F)(F)F)cn3)cc2)o1 (racemic)"
assigned_class = "Fulfilled"

[[record]]
compound = "CC[C@H]1CN(C(C)c2ccc(C3CC3)nc2F)[C@H](CC)CN1c1cc(=O)n(C)c2cc(CC#N)nn12 (some centres unmarked)"
assigned_class = "Not fulfilled"


# check: pIC50 of CC[C@H]1CN(C(C)c2ccc(OC3CC3)cc2)[C@H](CC)CN1c1cc(=O)n(C)c2cn(CC#N)nc12 (some centres unmarked) is greater than or equal to 7 Not fulfilled
